Assay type: in vivo, human
STUDY CONDITIONS: male, human, plasma, po, 20 mg
VALUE TYPE: Tmax

compound="CN1CC(=O)N2[C@H](c3ccc4c(c3)OCO4)c3[nH]c4ccccc4c3C[C@@H]2C1=O [tadalafil]" result="~2.37 h"

---

Type: in vivo, human
STUDY CONDITIONS: male, human, plasma, po, 20 mg
VALUE TYPE: Cmax (ng/mL)

compound="CN1CC(=O)N2[C@H](c3ccc4c(c3)OCO4)c3[nH]c4ccccc4c3C[C@@H]2C1=O [tadalafil]" numeric_result=396
